PROTOCOL_TEXT: Cytotoxicity against human MCF-10A cells assessed as inhibition of cell proliferation incubated for 48 hrs in absence of light irradiation by MTT assay
Format: toxicity, cell-based
MEASUREMENT_KIND: IC50 at 48 h

Could you tell me which IC50 at 48 h is on file for CCN(CC)c1ccc2nc3c4ccccc4/c(=N\CCCCCCC(=O)NCCOc4ccc(C(=O)c5c(-c6ccc(O)cc6)sc6cc(O)ccc56)cc4)cc-3sc2c1 ?
> 100 µM

###

Listed molecules paired with reported Cmax
PROTOCOL_TEXT: in vivo
CONDITION_LABEL: Sprague-Dawley, rat, po, 15 mg/kg
Description: Cmax in Sprague-Dawley rat at 15 mg/kg, po administered via gavage and measured after 0.5 to 168 hrs by LC-MS analysis
Record the value in ng/mL, omitting the unit from your answer.

>>> df
                           smiles_structure  measurement_kind  unit_of_measure  result_value
0  CC/C(=C(\c1ccccc1)c1ccc(OCCN(C)C)cc1)c1ccccc1              Cmax            ng/mL          11.7

Any idea what its Cmax is? The molecule is CCN(CC)c1ccc2nc3c4ccccc4/c(=N\CCCCCCC(=O)NCCOc4ccc(C(=O)c5c(-c6ccc(O)cc6)sc6cc(O)ccc56)cc4)cc-3sc2c1
17.5
